# measurement-description: Cytotoxicity in hepatoma cells (MTS)
# condition-details: human, HepDES19 cells, CC50, HepDES19 cells, 72 hours, MTS
# Method: HepDES19 cells (1.0×10^4 cells per well) were seeded in 96-well plates and incubated in DMEM with 10% fetal bovine serum (FBS) plus 1% penicillin and streptomycin, 1% nonessential amino acids, and 1% glutamine. […] Cells were incubated with the compound for 72 hours and cytotoxicity was measured using a mitochondrial metabolic assay with MTS (Promega). […] Three days later, the MTS reagent was added for 90 minutes prior to terminating the incubation period and reading the OD480.
quantity-kind: CC50 at 72 h (µM)

                                 smiles_code  qualifier_sign  meas_value
 0         Cc1cc(O)c(=O)c(O)cc1-c1ccc(Br)cc1               =        18.6
 1          Cc1cc(O)c(=O)c(O)cc1C(=O)c1cccs1               =          24
 2                CC(=O)c1cc(O)c(=O)c(O)cc1C               =          19
 3  Cc1cc(O)c(=O)c(O)cc1C(=O)c1ccc(-c2ccccc2)cc1               =        17.5
 4  COc1cc(C)c(C(=O)c2ccccc2)c(C(=O)c2ccccc2)c(O)c1=O               >         100
 5              COC(=O)c1cc(O)c(=O)c(OC)cc1C               =         100
 6         Cc1cc(O)c(=O)c(O)cc1C(=O)c1ccccc1               =        26.3
 7     COc1ccc(C(=O)c2cc(O)c(=O)c(O)cc2C)cc1               =          18
 8     O=c1c(O)ccc(-c2ccc(-c3ccccc3)cc2)cc1O               =          28
 9                Cc1cc(O)c(=O)c(O)cc1C(=O)O               >         100
10            O=C(Nc1ccc(O)c(=O)cc1)c1ccccc1               >         100
11  Cc1cc(O)c(=O)c(O)cc1-c1ccc([N+](=O)[O-])cc1               =          74

---

# Test system: C. neoformans var grubii, KN99
# measurement-description: Inhibition of C. neoformans growth, limiting dilution assay (MIC)
# Type: cell-based
# condition-details: Cryptococcus neoformans; KN99α, YNB-02+1% DMSO, 35° C., 48 hours; minimal concentration inhibiting 80% of growth relative to vehicle
MIC80: recorded values
quantity-kind: MIC80 (µM)

In [3]: df
Out[3]:
                                    compound  quantity_kind  meas_value
 0        Cc1cc(O)c(=O)c(O)cc1C(=O)c1ccccc1O          MIC80          15
 1                      Cc1ccc(O)c(=O)c(O)c1          MIC80          15
 2          Cc1cc(O)c(=O)c(O)cc1C(=O)c1ccco1          MIC80          24
 3    COC(=O)c1c(CCl)cc(O)c(=O)c(O)c1C(=O)OC          MIC80          50
 4              COC(=O)c1cc(O)c(=O)c(OC)cc1C          MIC80          50
 5     O=c1c(O)ccc(-c2ccc(-c3ccccc3)cc2)cc1O          MIC80          35
 6  CC(=O)NC(CCc1ccc(Cl)c(Cl)c1)c1cccc(O)c(=O)c1 (centres unmarked)          MIC80           6
 7         Cc1cc(O)c(=O)c(O)cc1C(=O)c1ccccc1          MIC80          36
 8                Cc1cc(O)c(=O)c(O)cc1C(=O)O          MIC80          50
 9             CC(C)=CCc1ccc(=O)c(O)cc1C(C)C          MIC80          18
10  Cc1cc(O)c(=O)c(O)cc1C(=O)c1ccc([N+](=O)[O-])cc1          MIC80          24
11  COc1cc(C)c(C(=O)c2ccccc2)c(C(=O)c2ccccc2)c(O)c1=O          MIC80          50
12    COCc1cc(O)c(=O)c(O)c(C(=O)OC)c1C(=O)OC          MIC80          50
13          Cc1cc(O)c(=O)c(O)cc1C(=O)c1cccs1          MIC80          11
14         Cc1cc(O)c(=O)c(O)cc1-c1ccc(Cl)cc1          MIC80          50
15         COC(=O)c1c2c(cc(O)c(=O)c1O)COC2=O          MIC80          50
16     COc1ccc(C(=O)c2cc(O)c(=O)c(O)cc2C)cc1          MIC80          18
17              Cc1ccc(C(=O)Nc2cccccc2=O)cc1          MIC80          50
18  Cc1cc(O)c(=O)c(O)cc1C(=O)c1ccc(-c2ccccc2)cc1          MIC80          18
19            Cc1cc(O)c(=O)c(O)cc1C(=O)C(C)C          MIC80          50
20                Cc1ccccc1C(=O)Oc1cccccc1=O          MIC80          50
21               O=C(Oc1cccccc1=O)c1ccccc1Cl          MIC80          36
22  O=C(Oc1cccccc1=O)c1ccc([N+](=O)[O-])cc1 [Compound 51, tropolone p-nitrobenzoate]          MIC80          24

---

# measurement-description: Cytotoxicity in hepatoma cells (MTS)
# condition-details: human, HepDES19 cells, CC50, HepDES19 cells, 72 hours, MTS
log10 of CC50 at 72 h: recorded values
quantity-kind: log10 of CC50 at 72 h (log10 of the value in µM)

In [3]: df
Out[3]:
                                    compound          quantity_kind  meas_value
 0                Cc1ccccc1C(=O)Oc1cccccc1=O  log10 of CC50 at 72 h        2.00
 1  Cc1cc(O)c(=O)c(O)cc1C(=O)c1ccc([N+](=O)[O-])cc1  log10 of CC50 at 72 h        1.66
 2                     CC(C)c1cccc(=O)c(O)c1  log10 of CC50 at 72 h        1.82
 3      COC(=O)c1c(C)cc(O)c(=O)c(O)c1C(=O)OC  log10 of CC50 at 72 h        1.39
 4                O=c1c(O)ccc(-c2ccccc2)cc1O  log10 of CC50 at 72 h        1.98
 5       Cc1cc(O)c(=O)c(O)cc1-c1cccc2ccccc12  log10 of CC50 at 72 h        1.30
 6                     CC(C)c1ccc(O)c(=O)cc1  log10 of CC50 at 72 h        1.65
 7             CC(C)=CCc1ccc(=O)c(O)cc1C(C)C  log10 of CC50 at 72 h        1.27
 8             Cc1cc(O)c(=O)c(O)cc1-c1ccccc1  log10 of CC50 at 72 h        1.57
 9             O=C(Oc1cccccc1=O)c1ccc(Cl)cc1  log10 of CC50 at 72 h        2.00
10          Cc1cc(O)c(=O)c(O)cc1C(=O)c1ccco1  log10 of CC50 at 72 h        1.54
11          Cc1ccc(S(=O)(=O)Oc2cccccc2=O)cc1  log10 of CC50 at 72 h        1.48
12                      Cc1ccc(O)c(=O)c(O)c1  log10 of CC50 at 72 h        1.85
13   Cc1cc(O)c(=O)c(O)cc1C(=O)c1ccc2ccccc2c1  log10 of CC50 at 72 h        1.23
14  CC(=O)NC(CCc1ccc(Cl)c(Cl)c1)c1cccc(O)c(=O)c1 (centres unmarked)  log10 of CC50 at 72 h        0.63
15                              O=c1cccccc1O  log10 of CC50 at 72 h        2.00

FYI, the data here is from patent US10980754B2.
